Value source: patent EP4640686A1

# System: RPMI2650
# Assay Remarks: Cancer cell antiproliferative activity / cell viability in RPMI2650 cells (72 h treatment)
# Format: cell-based
# Condition Label: Homo sapiens, RPMI-2650, RPM12650, read-out: Cell Viatility (IC50)
# Protocol: The human breast cancer cell line [MDA-MB-231] was cultured in RPMI medium with the addition of 10% fetal bovine serum, penicillin [100U/ml], and streptomycin [[…]]. The synthesized compounds were prepared with a 10 mM or 50 mM raw material solution dissolved in DMSO [dimethyl sulfoxide], and were diluted sequentially and treated. [RPMI2650] and [SNU2972] were cultivated under specific conditions. […]
In this section, each of the compounds is paired with its reported IC50.

| Compound | IC50 |
| --- | --- |
| CCC1c2nnc(C)n2-c2cnc(Nc3ccc(C(=O)NC4CCN(CCN5CCN(c6ccc7c(=O)n(C8CCC(=O)NC8=O)nc(C)c7c6)CC5)CC4)cc3OC)nc2N1CC1CCCCC1 (centres unmarked) | > 1 µM |
| CC[C@@H]1c2nnc(C)n2-c2cnc(Nc3ccc(C(=O)N4CCN(CC5CCN(c6ccc7c(=O)n(C8CCC(=O)NC8=O)nc(C)c7c6)CC5)CC4)cc3OC)nc2N1CC1CCCCC1 (some centres unmarked) | > 1 µM |
| CC[C@@H]1c2nnc(C)n2-c2cnc(Nc3ccc(C(=O)N4CCC(CN5CCN(c6ccc7c(=O)n(C8CCC(=O)NC8=O)nc(C)c7c6)CC5)CC4)cc3OC)nc2N1CC1CCCCC1 (some centres unmarked) | > 1 µM |
| CC[C@@H]1c2nnc(C)n2-c2cnc(Nc3ccc(C(=O)N4CCN(c5cccc6c(C)nn(C7CCC(=O)NC7=O)c(=O)c56)CC4)cc3OC)nc2N1CC1CCCCC1 (some centres unmarked) | < 0.1 µM |
| CC[C@@H]1c2nnc(C)n2-c2cnc(Nc3ccc(C(=O)N4CCN(CCNc5ccc6c(=O)n(C7CCC(=O)NC7=O)nc(C)c6c5)CC4)cc3OC)nc2N1CC1CCCCC1 (some centres unmarked) | > 1 µM |
